The values you see were collected from PubChem BioAssay (NCI).

EXPERIMENTAL DETAILS: NCI Yeast Anticancer Drug Screen. Data for the sgs1 mgt1 strain (AID 161)
EXPERIMENTAL PARAMETERS: S. cerevisiae sgs1 mgt1 strain, at 50.0 µM
The panel holds about 79,000 compounds, 15% with a hit somewhere; the sample as a whole holds those more often. Activity calls are given as the source filed them. Rule as the data show it: active = growth inhibition above about 70%; inactive = the rest.
Bench note: report the call from Y (active), N (inactive)

I would be grateful if you could indicate the recorded call for CC(=O)Nc1ccc(C(=O)N2C(=N)C(C#N)=C(O)/C2=C\c2ccc(Cl)c(Cl)c2)cc1 . N

I would be grateful if you could indicate the recorded call for Cc1ccc([N+](=O)[O-])cc1NC(=O)C(=O)Cc1occc(=O)c1O . N

I would be grateful if you could indicate the recorded call for O=[N+]([O-])c1ccc(S(=O)(=O)c2ccc(NCN3CCCCC3)cc2)cc1 . N

I would be grateful if you could indicate the recorded call for CCOC(=O)c1cc2ccccc2oc1=O . N

I would be grateful if you could indicate the recorded call for O=[n+]1ccn([O-])c2cc(Cl)ccc21 . N

I would be grateful if you could indicate the recorded call for COC(=O)/C=C(/Nc1ccccc1C(=O)O)C(=O)OC . N

I would be grateful if you could indicate the recorded call for O=c1c(F)cn2c(=O)n1CCCCCCCn1c(=O)c(F)cn(c1=O)CCCCCCC2 . N

I would be grateful if you could indicate the recorded call for CCN(CC)C1CS(=O)(=O)OC2=C1CSCC2 (stereo not given) . N

I would be grateful if you could indicate the recorded call for O=C(O)c1cc(C(=O)O)nc(C(=O)O)c1 . N

I would be grateful if you could indicate the recorded call for CCOC(=O)C(C)=P(c1ccccc1)(c1ccccc1)c1ccccc1 . N

I would be grateful if you could indicate the recorded call for O=c1oc2nc(-c3ccccc3)[nH]c(=O)c2c2c1CCCC2 . N

I would be grateful if you could indicate the recorded call for COc1nn(C)c(=O)c2cccnc12 . N

I would be grateful if you could indicate the recorded call for CC(O)CC(C)O (stereo not given) . N

I would be grateful if you could indicate the recorded call for CC(C)CC(NC(=O)OC(C)(C)C)C(=O)NC(Cc1c[nH]c2ccccc12)C(=O)NN (stereo not given) . N

I would be grateful if you could indicate the recorded call for CCc1cccc(C)c1NC(=O)C1=C(C)NC(C)=C(C(=O)Nc2c(C)cccc2CC)C1c1ccc([N+](=O)[O-])cc1 . N

I would be grateful if you could indicate the recorded call for Cc1ccc(S(=O)(=O)NC(CO)C(=O)O)cc1 (stereo not given) . N

I would be grateful if you could indicate the recorded call for COc1ccc(/C=C2\N=C(N3CCOCC3)NC2=O)cc1 . N

I would be grateful if you could indicate the recorded call for Nc1cccc(-c2nc3ccccc3[nH]2)c1 . N

I would be grateful if you could indicate the recorded call for CCN(CC)C(=O)Cc1c(C(=O)N(CC)CC)c(=O)nc2sccn12 . N

I would be grateful if you could indicate the recorded call for Clc1ccc(CSc2cnnc(SCc3ccc(Cl)cc3)c2SCc2ccc(Cl)cc2)cc1 . N

I would be grateful if you could indicate the recorded call for COC(=O)c1[nH]c(C)c(C(=O)OC)c1C . N

I would be grateful if you could indicate the recorded call for C=Cc1ccc(-c2ccccc2)cc1 . N

I would be grateful if you could indicate the recorded call for Cc1ccc(C2OC(=O)C(=O)C2=O)cc1 (stereo not given) . N

I would be grateful if you could indicate the recorded call for CP(=O)(c1ccccc1)c1ccccc1OCCCOCCCOc1ccccc1P(C)(=O)c1ccccc1 (stereo not given) . N

I would be grateful if you could indicate the recorded call for Cc1cc2c(C)n(Cc3ccc(Cl)cc3Cl)nc2c(C#N)c1C . N

I would be grateful if you could indicate the recorded call for COc1ccc(CC2CC(Cc3ccc(OC)c(OC)c3)C(=O)O2)cc1OC (stereo not given) . N

I would be grateful if you could indicate the recorded call for CC(C)(C)n1c(=O)n(C(=O)C(Cl)(Cl)Cl)n(C(=O)C(Cl)(Cl)Cl)c1=O . N

I would be grateful if you could indicate the recorded call for O=C=Nc1ccc(Cc2ccc(N=C=O)cc2)cc1 (tested in a mixture with another compound) . N

I would be grateful if you could indicate the recorded call for COc1cccc2c1OCC1Cc3ccccc3OC21 (stereo not given) . Y

I would be grateful if you could indicate the recorded call for CCOC(=O)CNc1nnnn1C1OC(CO)C(O)C1O (stereo not given) . N

I would be grateful if you could indicate the recorded call for ClC(Cl)C1OCCCO1 . N

I would be grateful if you could indicate the recorded call for c1ccc(CN2CCCCC2)nc1 . N

I would be grateful if you could indicate the recorded call for CCCC(N)C(=O)NC(Cc1c[nH]c2ccccc12)C(=O)O (stereo not given) . N

I would be grateful if you could indicate the recorded call for COc1ccc(Cc2ccc(OC)cc2)cc1 . N

I would be grateful if you could indicate the recorded call for O=c1c(-c2c(-c3ccccc3)oc3ccc(Cl)cc3c2=O)c(-c2ccccc2)oc2ccc(Cl)cc12 . N
